The values you see were collected from ChEMBL document CHEMBL3988442.

# Test system: Wolbachia pipientis
# ASSAY EXPLANATION: Anti-Wolbachia Cell-Based Screen
# Assay type: functional
# Design: scale not given: in the data most compounds retested in dose-response had high values
# CONDITION LABEL: 5 µM
The whole screen tested about 48,000 compounds, of which about 13,000 (27%) showed an effect of 50% or more. The list shows a part of the results.
READOUT TYPE: Percent Effect (%)
Your answer should be a plain number; it is taken to be in %.

Previously resolved entries follow.
Please supply the value of reported Percent Effect for the item CNC(=O)C1(Cc2cc(C(C)C)no2)CCN(Cc2cccnc2)C1 (configuration not stated)
113.2

Please supply the value of reported Percent Effect for the item CC(C)c1nnc(NC(=O)N(C)Cc2ccc(C(N)=O)cc2)s1
102.8

***
Please supply the value of reported Percent Effect for the item CC(NC(=O)N(C)Cc1ccncc1)c1nncn1C (configuration not stated)
2.48

Please supply the value of reported Percent Effect for the item CC(C)c1cc(CNC(=O)NCc2cccc(N3CC=CC3)c2)on1
1.94

Please supply the value of reported Percent Effect for the item CNC(=O)c1ccc(CN(C)c2ccc(C(F)(F)F)cn2)cc1
22.77
